biological target: T1, human serum albumin (human, UniProt P02768 25-609); test: SPR; Biacore 8K; HSA amine-coupled on CM5 chip (1250 RU); constructs at 50, 25, 12.5, 6.25 and 3.125 nM flowed over at 30 uL/min in PBS-T pH 7.4; 150 s association, 3000 s dissociation; 1:1 Langmuir fit; details: both partners purified
T1 construct: human serum albumin; also called HSA
Non-standard residues stand in square brackets, D forms with d. maleimide‑DOTA = DOTA attached via maleimide to the Cys thiol; Sta = CC(C)C[C@H](N)[C@@H](O)CC(=O)O; PEG4 = NCCOCCOCCOCCOCCC(=O)O
assayMetric: Kd (pM)
Numbers only, in pM.

binder | Kd [pM]
ABD (albumin-binding domain; recombinant ABD035 with N-terminal MEDANS, a Cys and a C-terminal Sortase A recognition sequence and His-tag) (designed binder, also called ABD control; unconjugated ABD; source: E. coli BL21 (DE3)*, purified (IMAC, HisPur Cobalt resin); not shown: His6, C-terminal, kept) MEDANSLAEAKVLANRELDKYGVSDFYCRLINKAKTVEGVEALKLHILAALPVDGSGSGSLPETGG | 13

Kindly review the next binder as well.
// query Kd value for entry ABD-RM26 Gen 2A conjugate (designed binder, numbers in words are those of the source; also: DOTA loaded with 111In in cell assays) MEDANSLAEAKVLANRELDKYGVSDFYC(maleimide‑DOTA)RLINKAKTVEGVEALKLHILAALPVDGSGSGSLPETGGG[PEG4][dF]QWAVGH[Sta]L-NH2
// result 48
